Target: BRD4-BD1 (Homo sapiens (Human), UniProt O60885)
Experiment: bromoKdELECT assay for binding affinity to BRD4-BD1
pKd: −log10 of the molar value.
VALUE_KIND: pKd

Consider the reported pKd for these molecules:
>  <MOLECULE>
Cc1sc2c(c1C)C(c1ccc(Cl)cc1)=N[C@@H](CC(=O)NCCOCCOCCOc1ccc(C(=O)NC3C(C)(C)C(Oc4ccc(C#N)c(Cl)c4)C3(C)C)cc1)c1nnc(C)n1-2 (stereo partly drawn)

>  <pKd>
5.60 to 6.30

$$$$
>  <MOLECULE>
Cc1sc2c(c1C)C(c1ccc(Cl)cc1)=N[C@@H](CC(=O)NCCOCCOCCOCCOCCOCCOCCOc1ccc(C(=O)NC3C(C)(C)C(Oc4ccc(C#N)c(Cl)c4)C3(C)C)cc1)c1nnc(C)n1-2 (stereo partly drawn)

>  <pKd>
6.30 to 7.30

$$$$
>  <MOLECULE>
Cc1sc2c(c1C)C(c1ccc(Cl)cc1)=N[C@@H](CC(=O)NCCOCCOCCOCCOCCOCCOC/C=C/C(=O)N1CCC[C@@H](n3nc(-c4ccc(Oc5ccccc5)cc4)c4c(N)ncnc43)C1)c1nnc(C)n1-2

>  <pKd>
6.30 to 7.30

$$$$
>  <MOLECULE>
Cc1sc2c(c1C)C(c1ccc(Cl)cc1)=N[C@@H](CC(=O)NCCCCCCCC/C=C/C(=O)N1CCC[C@@H](n3nc(-c4ccc(Oc5ccccc5)cc4)c4c(N)ncnc43)C1)c1nnc(C)n1-2

>  <pKd>
< 5.60

$$$$
>  <MOLECULE>
Cc1sc2c(c1C)C(c1ccc(Cl)cc1)=N[C@@H](CC(=O)NCCCN1CCN(CCCN(C)C/C=C/C(=O)N3CCC[C@@H](n4nc(-c5ccc(Oc6ccccc6)cc5)c5c(N)ncnc54)C3)CC1)c1nnc(C)n1-2

>  <pKd>
> 7.30

$$$$

# input for lookup
Q: # get_value(readout='pKd', item= `Cc1sc2c(c1C)C(c1ccc(Cl)cc1)=N[C@@H](CC(=O)NCCOCCOC/C=C/C(=O)N1CCC[C@@H](n3nc(-c4ccc(Oc5ccccc5)cc4)c4c(N)ncnc43)C1)c1nnc(C)n1-2` )
A: 6.30 to 7.30
